# Tested on: H1650 cells
# RUN_DESCRIPTION: CellTiterGlo (CTG) cell viability, 3D, 120 h, H1650 (Example 8)
# Assay type: cell-based, human
# RUN_CONDITIONS: H1650 3D, mean of n1 and n2, read-out: H1650 3D CTG IC50 Mean of n1 and n2
QUANTITY_KIND: pIC50
Just the number, please; pIC50 means minus log10 of the concentration in mol/L.

## Input Report pIC50 for Cc1cc(N(C)c2nc(C(=O)[O-])c(CCCOc3ccc(C#CC[N+](C)(C)Cc4ccc(NC(=O)[C@H](C)NC(=O)[C@@H](NC(=O)CCOCCN5C(=O)CC(C)C5=O)C(C)C)cc4CC[C@@H]4O[C@H](C(=O)O)[C@@H](O)[C@H](O)[C@H]4O)cc3F)s2)nnc1Nc1nc2ccccc2s1 (stereo partly drawn) [Ab C - L106A-P2] tested on H1650 cells.
## Output 9.07

## Input Report pIC50 for Cc1c(Nc2nc3ccccc3s2)nnc2c1CC(OCCN(C)C(=O)OCc1ccc(NC(=O)[C@H](CCCNC(N)=O)NC(=O)[C@@H](NC(=O)CCOCCN3C(=O)CC(C)C3=O)C(C)C)cc1)CN2c1nc(C(=O)O)c(CCCOc2ccc(C#CCN(C)C)cc2F)s1 (stereo partly drawn) [Ab C - L9C-P16] tested on H1650 cells.
## Output 8.39

## Input Report pIC50 for Cc1cc(N(C)c2nc(C(=O)O)c(CCCOc3ccc(C#CC[N+](C)(C)Cc4ccc(NC(=O)[C@H](CCCNC(N)=O)NC(=O)[C@@H](NC(=O)CCOCCN5C(=O)CC(C)C5=O)C(C)C)cc4)cc3F)s2)nnc1Nc1nc2ccccc2s1 (stereo partly drawn) [Ab C - L9A-P2] tested on H1650 cells.
## Output 8.25

----------
# Tested on: ALL-SILL (T-ALL)
# RUN_DESCRIPTION: CellTiter-Glo viability 72 h, single agent or 1/1 combination, ALL-SIL (Example 9)
# Assay type: cell-based
# RUN_CONDITIONS: single agent or 1/1 combination as labelled, n1, read-out: ALL-SILL (T-ALL) IC50 n1
Note to self: IC50 under 0.4 nM means Fulfilled, ties and anything higher get Not fulfilled.

Here are 3 molecules together with their reported answers.
molecule="Cc1c(Nc2nc3ccccc3s2)nnc2c1CCCN2c1ccc(-c2cnn(CC34CC5(C)CC(C)(CC(CCCNCCCO)(C5)C3)C4)c2C)c(C(=O)O)n1 [P40]" label_class="Not fulfilled"
molecule="CC1(C)CCC(CN2CCN(c3ccc(C(=O)NS(=O)(=O)c4ccc(NCC5CCOCC5)c([N+](=O)[O-])c4)c(Oc4cnc5[nH]ccc5c4)c3)CC2)=C(c2ccc(Cl)cc2)C1 [ABT-199, reference compound]" label_class="Not fulfilled"
molecule="CC[C@]1(O)C[C@H]2CN(CCc3c([nH]c4ccccc34)[C@@](C(=O)OC)(c3cc4c(cc3OC)N(C=O)[C@H]3[C@@](O)(C(=O)OC)[C@H](OC(C)=O)[C@]5(CC)C=CCN6CC[C@]43[C@@H]65)C2)C1 [Vincristine, vincristine]" label_class=Fulfilled

## Input A record lists Cc1c(Nc2nc3ccccc3s2)nnc2c1CCCN2c1ccc(-c2cnn(C[C@]34C[C@]5(C)C[C@](C)(C3)C[C@@](OCCN3CCCCCC3)(C5)C4)c2C)c(C(=O)O)n1 [P33] . Is its IC50 below 0.4 nM?
## Output Fulfilled

## Input A record lists Cc1c(Nc2nc3ccccc3s2)nnc2c1CCCN2c1ccc(-c2cnn(CC34CC5(C)CC(C)(C3)CC(OCCNCCCO)(C5)C4)c2C)c(C(=O)O)n1 [P25] . Is its IC50 below 0.4 nM?
## Output Not fulfilled

## Input A record lists Cc1c(N(C(=O)c2cc(-c3cc(Cl)ccc3C(=O)N3Cc4ccccc4C[C@H]3CN3CCOCC3)n(C)c2C)c2ccc(O)cc2)cc(C#N)n1C [Compound A2, reference compound] . Is its IC50 below 0.4 nM?
## Output Not fulfilled

----------
Listing of recorded Stab w1 +37° C. % Agg (by SEC) by entry.
# RUN_DESCRIPTION: ADC stability study: % aggregates by SEC after incubation at 37° C. for 168 h
# Format: physicochemical
# output: bare number, implied unit %

// below: answered compounds
compound="CC[N+](C)(CC#Cc1ccc(OCCCc2sc(N3CCCc4c3nnc(Nc3nc5ccccc5s3)c4C)nc2C(=O)O)c(F)c1)Cc1ccc(NC(=O)[C@H](CCCNC(N)=O)NC(=O)[C@@H](NC(=O)CCOCCN2C(=O)CC(C)C2=O)C(C)C)cc1 (stereo partly shown)" result_units=% recorded_value=0.2
compound="Cc1c(Nc2nc3ccccc3s2)nnc2c1CCCN2c1nc(C(=O)[O-])c(CCCOc2ccc(C#CC[N+](C)(C)Cc3ccc(NC(=O)[C@H](CCCNC(N)=O)NC(=O)[C@@H](NC(=O)CCOCCN4C(=O)CC(C)C4=O)C(C)C)cc3)cc2F)[nH]1 (stereo partly shown) [Ab C - L9A-P1]" result_units=% recorded_value=6
compound="Cc1c(Nc2nc3ccccc3s2)nnc2c1CC(OCCN(C)C(=O)OCc1ccc(NC(=O)[C@H](CCCNC(N)=O)NC(=O)[C@@H](NC(=O)CCOCCN3C(=O)CC(C)C3=O)C(C)C)cc1)CN2c1nc(C(=O)O)c(CCCOc2ccc(C#CCN(C)C)cc2F)s1 (stereo partly shown)" result_units=% recorded_value=2.4

## Input // Stab w1 +37° C. % Agg (by SEC) lookup, key: Cc1c(Nc2nc3ccccc3s2)nnc2c1CCCN2c1nc(C(=O)O)c(CCCOc2ccc(C#CCN3CCN(C(=O)OCc4ccc(NC(=O)[C@H](CCCNC(N)=O)NC(=O)[C@@H](NC(=O)CCOCCN5C(=O)CC(C)C5=O)C(C)C)cc4)CC3)cc2F)s1 (stereo partly shown) [Ab D - L9C-P17]
## Output 6

----------
Listing of recorded IC50 by entry.
# System: H1650 cells
# RUN_DESCRIPTION: CellTiterGlo (CTG) cell viability, 3D, 120 h, H1650 (Example 8)
# Type: cell-based, human
# RUN_CONDITIONS: Homo sapiens, NCI-H1650, H1650 3D, experiment n1, read-out: H1650 3D CTG IC50 n1

// below: answered compounds
compound="Cc1cc(N(C)c2nc(C(=O)O)c(CCCOc3ccc(C#CCN(C)C)cc3F)s2)nnc1Nc1nc2ccccc2s1 [P2]" recorded_value="1060 pM"
compound=CNCC#Cc1ccc(OCCCc2sc(N3CCCc4c3nnc(Nc3nc5ccccc5s3)c4C)nc2C(=O)O)c(F)c1 recorded_value="4000 pM"
compound=Cc1c(Nc2nc3ccccc3s2)nnc2c1CCCN2c1nc(C(=O)O)c(CCCOc2ccc(C#CCN(C)C)cc2)s1 recorded_value="390 pM"

Attention now shifts to the item below.
## Input Report IC50 for Cc1c(Nc2nc3ccccc3s2)nnc2c1CCCN2c1nc(C(=O)O)c(CCCOc2ccc(C#CCN(C)C)cc2F)s1 [P1] tested on H1650 cells.
## Output 510 pM

----------
# System: H1650 cells
# RUN_DESCRIPTION: CellTiterGlo (CTG) cell viability, 3D, 120 h, H1650 (Example 8)
# Assay type: cell-based, human
# RUN_CONDITIONS: Homo sapiens, NCI-H1650, H1650 3D, mean of n1 and n2, read-out: H1650 3D CTG IC50 Mean of n1 and n2
QUANTITY_KIND: IC50
Give the number first and the unit second.

compound="Cc1c(Nc2nc3ccccc3s2)nnc2c1CCCN2c1ccc(-c2cnn(C[C@]34C[C@]5(C)C[C@](C)(C3)C[C@@](OCCNCC[C@H](O)CO)(C5)C4)c2C)c(C(=O)O)n1 [P19]" assayed_target="H1650 cells" recorded_value="2.16 nM"
compound="Cc1c(Nc2nc3ccccc3s2)nnc2c1CCCN2c1ccc(-c2cnn(CC34CC5(C)CC(C)(C3)CC(OCCN3CCCC3)(C5)C4)c2C)c(C(N)=O)n1 [P76]" assayed_target="H1650 cells" recorded_value="2.94 nM"
compound="Cc1c(Nc2nc3ccccc3s2)nnc2c1CCCN2c1ccc(-c2cnn(CC34CC5(C)CC(C)(CC(CCCN(C)CCCO)(C5)C3)C4)c2C)c(C(=O)O)n1 [P68]" assayed_target="H1650 cells" recorded_value="0.76 nM"
compound="Cc1c(Nc2nc3ccccc3s2)nnc2c1CCCN2c1ccc(-c2cnn(C[C@]34C[C@]5(C)C[C@](C)(C3)C[C@@](OCCN(C)C)(C5)C4)c2C)c(C(=O)O)n1 [P27]" assayed_target="H1650 cells" recorded_value="0.26 nM"

## Input // IC50 lookup, key: Cc1c(Nc2nc3ccccc3s2)nnc2c1CCCN2c1nc(C(=O)O)c(CCCOc2ccc(C#CC(C)N3CCN(C)CC3)cc2F)s1 (stereo not drawn) [P8]
## Output 1.25 nM

## Input // IC50 lookup, key: Cc1c(Nc2nc3ccccc3s2)nnc2c1CCCN2c1nc(C(=O)O)c(CCCOc2ccc(C#CCN(C)C)cc2F)s1 [P1]
## Output 0.9 nM

## Input // IC50 lookup, key: Cc1c(Nc2nc3ccccc3s2)nnc2c1CCCN2c1nc(C(=O)O)c(CCCOc2ccc(C#CCN(C)C)cc2)s1 [P28]
## Output 0.29 nM

## Input // IC50 lookup, key: CCN(C)CC#Cc1ccc(OCCCc2sc(N3CCCc4c3nnc(Nc3nc5ccccc5s3)c4C)nc2C(=O)O)c(F)c1 [P13]
## Output 2.4 nM

## Input // IC50 lookup, key: Cc1c(Nc2nc3cc(F)ccc3s2)nnc2c1CCCN2c1ccc(-c2cnn(CC34CC5(C)CC(C)(C3)CC(OCCN3CCCC3)(C5)C4)c2C)c(C(=O)O)n1 [P63]
## Output 2.88 nM

## Input // IC50 lookup, key: Cc1c(Nc2nc3ccc(F)cc3s2)nnc2c1CCCN2c1ccc(-c2cnn(CC34CC5(C)CC(C)(C3)CC(OCCN3CCCC3)(C5)C4)c2C)c(C(=O)O)n1 [P65]
## Output 1.1 nM

## Input // IC50 lookup, key: Cc1c(Nc2nc3ccccc3s2)nnc2c1CCCN2c1ccc(-c2cnn(CC34CC5(C)CC(C)(CC(CCCN6CCCCCC6)(C5)C3)C4)c2C)c(C(=O)O)n1 [P52]
## Output 0.555 nM

## Input // IC50 lookup, key: Cc1c(Nc2nc3ccccc3s2)nnc2c1CCCN2c1ccc(-c2cnn(C[C@]34C[C@]5(C)C[C@](C)(C3)C[C@@](OCCN3CCCC3)(C5)C4)c2C)c(C(=O)O)n1 [P21]
## Output 0.34 nM

## Input // IC50 lookup, key: Cc1c(Nc2nc3ccccc3s2)nnc2c1CCCN2c1ccc(-c2cnn(CC34CC5(C)CC(C)(CC(CCCNCCC(=O)O)(C5)C3)C4)c2C)c(C(=O)O)n1 [P54]
## Output 11.2 nM
